tested on: Mycolicibacterium smegmatis; experiment: Antibacterial activity against Mycobacterium smegmatis mc2155; type: functional
Below, each of the compounds is paired with its reported MIC value.
Just the number please, in µM, no unit attached.

Consider the following illustrative entries.
| compound | system_tested | scale_unit | MIC |
| --- | --- | --- | --- |
| O=C(O)c1cn(C2CC2)c2cc(N3CCNCC3)c(F)cc2c1=O [CIPROFLOXACIN] | Mycolicibacterium smegmatis | µM | 15 |
| CCCCCCCCCCNc1nc(=O)n([C@H]2C[C@H](OC(=O)OCCOCCOCCO)[C@@H](CO)O2)cc1C | Mycolicibacterium smegmatis | µM | 54 |

Problem: Any idea what MIC came out for NNC(=O)c1ccncc1 [ISONIAZID] on Mycolicibacterium smegmatis?
Solution: 29
